This listing pairs binders with measured pKi.
# targetOrSystem: T1, E6AP AZUL 24-87 (Homo sapiens, UniProt Q05086)
# T1 chain: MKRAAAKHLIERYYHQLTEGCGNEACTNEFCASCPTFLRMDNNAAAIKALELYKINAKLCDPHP
# assayRemarks: fluorescence competition (50 nM S358C-acrylodan, 10 nM AZUL)
pKi: −log10 of the molar value. Non-standard residues stand in square brackets, D forms with d. No end group written: not given here. pY = N[C@@H](Cc1ccc(OP(=O)(O)O)cc1)C(=O)O
experimentalReadout: pKi

* EEDD[pY]DVMQDPEFLQSVLENLPGVDPNNEAIRNAMGSLASQATKD [Rpn10 RAZUL peptide Y326p 322-366] | 7.37
* EEDDYDVMQDPEFLQSVLENLPGVDPNNEAIRNAMGSLASQATKD [Rpn10 RAZUL peptide 322-366] | 7.55
